- Tested on: full-length human prolyl-4-hydroxylase domain (PHD) enzymes, PHD1 and PHD2
- Assay text: TR-FRET assay, selectivity of compounds for PHD1 over PHD2 (ratio of Kis calculated from IC50s)
- Format: biochemical
- Cond: ratio of Kis (PHD2 Ki/PHD1 Ki), Kis calculated from TR-FRET IC50s by Cheng Prussoff equation; 1 uM 2-OG
Result type: Selectivity of PHD1 over PHD2

> print(dat)
                                   molecule                         target.under.test                    result.type  recorded.value
1  Cc1ncc(-c2cnc(C(=O)NCC(C)(C)C(=O)O)c(O)c2)s1  full-length human prolyl-4-hydroxylase domain (PHD) enzymes, PHD1 and PHD2  Selectivity of PHD1 over PHD2        ~15 fold
2  CC(C)(CNC(=O)c1ncc(-c2cccc(OCC3CC3)c2)cc1O)C(=O)O  full-length human prolyl-4-hydroxylase domain (PHD) enzymes, PHD1 and PHD2  Selectivity of PHD1 over PHD2      ~1984 fold
3  CC(C)c1ccc2sc(-c3cnc(C(=O)NCC(C)(C)C(=O)O)c(O)c3)cc2c1  full-length human prolyl-4-hydroxylase domain (PHD) enzymes, PHD1 and PHD2  Selectivity of PHD1 over PHD2       ~341 fold
4  CC(C)(CNC(=O)c1ncc(-c2cccc(NCCc3ccc(Cl)cc3)c2)cc1O)C(=O)O  full-length human prolyl-4-hydroxylase domain (PHD) enzymes, PHD1 and PHD2  Selectivity of PHD1 over PHD2        ~31 fold
5  CC(C)(CNC(=O)c1ncc(-c2cccc(COc3cccc4ccccc34)c2)cc1O)C(=O)O  full-length human prolyl-4-hydroxylase domain (PHD) enzymes, PHD1 and PHD2  Selectivity of PHD1 over PHD2       ~885 fold

// for each molecule below, give its Selectivity of PHD1 over PHD2
1. CC(C)(C)OC(=O)N1CCC(n2cc(-c3cnc(C(=O)NCC(C)(C)C(=O)O)c(O)c3)cn2)CC1
2. C[C@@H](CC(=O)O)NC(=O)c1ncc(-c2cccc(Cl)c2)cc1O

["~444 fold", "~16 fold"]

---

- Tested on: full-length human prolyl-4-hydroxylase domain (PHD) enzymes, PHD1 and PHD2
- Assay text: TR-FRET assay, selectivity of compounds for PHD1 over PHD2 (ratio of Kis calculated from IC50s)
- Format: biochemical
- Cond: ratio of Kis (PHD2 Ki/PHD1 Ki), Kis calculated from TR-FRET IC50s by Cheng Prussoff equation; 1 uM 2-OG
For each of the molecules below, state its Selectivity of PHD1 over PHD2.

> print(dat)
                                   molecule                    result.type  recorded.value
1  CC(C)(CNC(=O)c1ncc(-c2ccc3cc(NS(C)(=O)=O)ccc3c2)cc1O)C(=O)O  Selectivity of PHD1 over PHD2        ~88 fold

// for each molecule below, give its Selectivity of PHD1 over PHD2
1. CC(C)(CC(=O)O)NC(=O)c1ncc(-c2cccc(Cl)c2)cc1O
2. CC(C)(CNC(=O)c1ncc(-c2ccc3cc(OCc4ccc(Cl)cc4)ccc3c2)cc1O)C(=O)O
3. Cc1ccnc2ccc(-c3cnc(C(=O)NCC(C)(C)C(=O)O)c(O)c3)cc12
4. CC(CNC(=O)c1ncc(-c2ccc3ccccc3c2)cc1O)C(=O)O (centres unmarked)

1. ~14 fold
2. ~24 fold
3. ~230 fold
4. ~167 fold
